- measurement.target: human SGLT2 (Homo sapiens, UniProt P31639)
- Construct: expressed in transfected cells; host or cells: CHOK1 (Chinese hamster ovary) cells, kept under Geneticin selection
- Sequence (P31639 whole entry): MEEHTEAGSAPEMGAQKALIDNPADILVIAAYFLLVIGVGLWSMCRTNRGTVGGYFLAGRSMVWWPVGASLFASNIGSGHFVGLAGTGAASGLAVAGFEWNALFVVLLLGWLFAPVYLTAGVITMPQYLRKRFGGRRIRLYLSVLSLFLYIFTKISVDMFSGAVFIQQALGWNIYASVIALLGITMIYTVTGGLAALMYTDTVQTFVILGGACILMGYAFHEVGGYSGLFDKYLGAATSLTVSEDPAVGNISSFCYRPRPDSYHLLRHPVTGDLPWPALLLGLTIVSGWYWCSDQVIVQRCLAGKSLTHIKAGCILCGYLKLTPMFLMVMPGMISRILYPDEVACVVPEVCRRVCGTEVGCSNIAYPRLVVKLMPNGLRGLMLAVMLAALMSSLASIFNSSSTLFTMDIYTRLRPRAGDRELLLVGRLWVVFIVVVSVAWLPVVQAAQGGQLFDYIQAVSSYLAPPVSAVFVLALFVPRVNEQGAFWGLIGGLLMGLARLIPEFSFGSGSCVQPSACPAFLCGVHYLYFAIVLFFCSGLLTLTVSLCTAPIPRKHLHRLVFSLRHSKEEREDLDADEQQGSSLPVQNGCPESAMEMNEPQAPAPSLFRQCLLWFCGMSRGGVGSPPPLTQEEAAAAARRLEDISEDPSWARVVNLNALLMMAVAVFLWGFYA
- test.description: Assay for SGLT2 inhibition (14C-AMG uptake in CHOK1 cells expressing human SGLT2)
- Type: cell-based
- measurement.parameters: CHOK1 cells expressing human SGLT2; 14C-AMG uptake, 0.5 mM, 2 hours at 37° C.; read-out: IC50
readout: pIC50
// scale note: pIC50 = -log10(conc_M); give the bare number

smiles.code: OC[C@H]1O[C@@H](n2cc(Cc3ccc(I)cc3)c3c(Br)cccc32)[C@H](O)[C@@H](O)[C@@H]1O
reported.result: 8.21

For reference, reported pIC50 for "OC[C@H]1O[C@@H](n2cc(Cc3ccc4occc4c3)c3c(Br)cccc32)[C@H](O)[C@@H](O)[C@@H]1O" stands at 8.08

For reference, reported pIC50 for "OC[C@H]1O[C@@H](n2cc(Cc3ccc(I)cc3)c3c(Cl)cc(Cl)cc32)[C@H](O)[C@@H](O)[C@@H]1O" stands at 7.85

For reference, reported pIC50 for "OC[C@H]1O[C@@H](n2cc(Cc3ccc(OC(F)(F)F)cc3)c3c(Cl)cccc32)[C@H](O)[C@@H](O)[C@@H]1O" stands at 8.02

For reference, reported pIC50 for "CCOc1ccc(Cc2cn([C@@H]3O[C@H](CO)[C@@H](O)[C@H](O)[C@H]3O)c3cc(Cl)cc(Cl)c23)cc1" stands at 8.49

For reference, reported pIC50 for "OC[C@H]1O[C@@H](n2cc(Cc3ccc(Br)cc3)c3c(Br)cccc32)[C@H](O)[C@@H](O)[C@@H]1O" stands at 7.92

For reference, reported pIC50 for "CCc1ccc(Cc2cn([C@@H]3O[C@H](CO)[C@@H](O)[C@H](O)[C@H]3O)c3cccc(C)c23)cc1" stands at 8.96
